target or system: PfCRT^Ecu1110 (Plasmodium falciparum, UniProt Q9N623, A220S/I356L/K76T/N326D)
Sequence (Q9N623 whole entry A220S/I356L/K76T/N326D): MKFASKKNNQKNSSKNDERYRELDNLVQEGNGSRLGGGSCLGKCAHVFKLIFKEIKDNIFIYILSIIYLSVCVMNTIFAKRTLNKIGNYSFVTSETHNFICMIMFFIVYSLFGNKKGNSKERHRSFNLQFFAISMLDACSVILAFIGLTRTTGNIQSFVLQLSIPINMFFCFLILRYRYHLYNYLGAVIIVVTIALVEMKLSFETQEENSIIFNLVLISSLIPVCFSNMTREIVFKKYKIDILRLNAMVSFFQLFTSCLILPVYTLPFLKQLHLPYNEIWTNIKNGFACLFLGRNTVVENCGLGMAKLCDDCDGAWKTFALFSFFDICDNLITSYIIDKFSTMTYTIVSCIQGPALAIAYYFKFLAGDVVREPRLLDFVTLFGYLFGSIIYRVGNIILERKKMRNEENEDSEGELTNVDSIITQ
experiment: cell-based
particulars: Trans-inhibition IC50 of [3H]VF-6 transport, PfCRTEcu1110, drug on opposite side to [3H]VF-6; mean ± SEM, n = 5; SEM
Here, each record is paired with measured pIC50 data.
Scale for pIC50: -log10 of concentration given in mol/L; no unit attached.

| molecule | quantity | observed measurement |
| --- | --- | --- |
| CCN(CC)CCCC(C)Nc1ccnc2cc(Cl)ccc12 (centres unmarked) [CQ, chloroquine, reference compound] | pIC50 | 4.21 |

Prompt: Give the value of pIC50 reported for the following: CN(C)CCC(c1ccc(Cl)cc1)c1ccccn1 (centres unmarked) [CP, chlorpheniramine, reference compound]
Response: 5.14
